molecular target: Acetylcholinesterase (Rattus norvegicus); test: Inhibition of rat brain homogenate AchE
Sequence (P37136 whole entry): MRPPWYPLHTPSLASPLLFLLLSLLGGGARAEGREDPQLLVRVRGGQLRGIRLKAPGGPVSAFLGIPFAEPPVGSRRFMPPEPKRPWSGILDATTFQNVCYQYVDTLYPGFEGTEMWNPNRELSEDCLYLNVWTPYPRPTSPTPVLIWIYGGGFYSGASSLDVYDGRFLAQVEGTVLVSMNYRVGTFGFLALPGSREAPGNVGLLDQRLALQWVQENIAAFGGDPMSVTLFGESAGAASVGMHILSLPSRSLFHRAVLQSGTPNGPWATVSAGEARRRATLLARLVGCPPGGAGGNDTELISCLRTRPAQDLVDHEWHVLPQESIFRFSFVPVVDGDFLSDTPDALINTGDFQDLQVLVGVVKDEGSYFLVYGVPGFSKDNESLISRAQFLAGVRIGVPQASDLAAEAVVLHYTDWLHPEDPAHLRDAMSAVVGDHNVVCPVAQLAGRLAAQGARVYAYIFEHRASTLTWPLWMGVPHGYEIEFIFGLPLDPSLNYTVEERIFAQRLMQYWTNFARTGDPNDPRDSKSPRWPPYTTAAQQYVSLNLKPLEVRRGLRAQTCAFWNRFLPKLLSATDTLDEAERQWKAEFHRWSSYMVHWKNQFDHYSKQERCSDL

compound: Cc1cc2c(cc1CN1CCN(C(c3ccc(F)cc3)c3ccc(F)cc3)CC1)OCO2
IC50: Not Active
//
compound: CC1=C(CCN2CCN(C(c3ccc(F)cc3)c3ccc(F)cc3)CC2)C(=O)C2CCCCC2=N1 (centres undefined)
IC50: Not Active
//
compound: COc1cc(Br)c(CN2CCN(C(c3ccc(F)cc3)c3ccc(F)cc3)CC2)cc1OC
IC50: Not Active
//
compound: Cc1nc2ccccn2c(=O)c1CCN1CCN(C(c2ccc(F)cc2)c2ccc(F)cc2)CC1
IC50: Not Active

The measurements presented in this section are drawn from ChEMBL document CHEMBL1138964.
